# assayed-target: Nav 1.7 (Homo sapiens, UniProt Q15858)
# Construct: expressed in transfected cells
# Sequence (Q15858 whole entry): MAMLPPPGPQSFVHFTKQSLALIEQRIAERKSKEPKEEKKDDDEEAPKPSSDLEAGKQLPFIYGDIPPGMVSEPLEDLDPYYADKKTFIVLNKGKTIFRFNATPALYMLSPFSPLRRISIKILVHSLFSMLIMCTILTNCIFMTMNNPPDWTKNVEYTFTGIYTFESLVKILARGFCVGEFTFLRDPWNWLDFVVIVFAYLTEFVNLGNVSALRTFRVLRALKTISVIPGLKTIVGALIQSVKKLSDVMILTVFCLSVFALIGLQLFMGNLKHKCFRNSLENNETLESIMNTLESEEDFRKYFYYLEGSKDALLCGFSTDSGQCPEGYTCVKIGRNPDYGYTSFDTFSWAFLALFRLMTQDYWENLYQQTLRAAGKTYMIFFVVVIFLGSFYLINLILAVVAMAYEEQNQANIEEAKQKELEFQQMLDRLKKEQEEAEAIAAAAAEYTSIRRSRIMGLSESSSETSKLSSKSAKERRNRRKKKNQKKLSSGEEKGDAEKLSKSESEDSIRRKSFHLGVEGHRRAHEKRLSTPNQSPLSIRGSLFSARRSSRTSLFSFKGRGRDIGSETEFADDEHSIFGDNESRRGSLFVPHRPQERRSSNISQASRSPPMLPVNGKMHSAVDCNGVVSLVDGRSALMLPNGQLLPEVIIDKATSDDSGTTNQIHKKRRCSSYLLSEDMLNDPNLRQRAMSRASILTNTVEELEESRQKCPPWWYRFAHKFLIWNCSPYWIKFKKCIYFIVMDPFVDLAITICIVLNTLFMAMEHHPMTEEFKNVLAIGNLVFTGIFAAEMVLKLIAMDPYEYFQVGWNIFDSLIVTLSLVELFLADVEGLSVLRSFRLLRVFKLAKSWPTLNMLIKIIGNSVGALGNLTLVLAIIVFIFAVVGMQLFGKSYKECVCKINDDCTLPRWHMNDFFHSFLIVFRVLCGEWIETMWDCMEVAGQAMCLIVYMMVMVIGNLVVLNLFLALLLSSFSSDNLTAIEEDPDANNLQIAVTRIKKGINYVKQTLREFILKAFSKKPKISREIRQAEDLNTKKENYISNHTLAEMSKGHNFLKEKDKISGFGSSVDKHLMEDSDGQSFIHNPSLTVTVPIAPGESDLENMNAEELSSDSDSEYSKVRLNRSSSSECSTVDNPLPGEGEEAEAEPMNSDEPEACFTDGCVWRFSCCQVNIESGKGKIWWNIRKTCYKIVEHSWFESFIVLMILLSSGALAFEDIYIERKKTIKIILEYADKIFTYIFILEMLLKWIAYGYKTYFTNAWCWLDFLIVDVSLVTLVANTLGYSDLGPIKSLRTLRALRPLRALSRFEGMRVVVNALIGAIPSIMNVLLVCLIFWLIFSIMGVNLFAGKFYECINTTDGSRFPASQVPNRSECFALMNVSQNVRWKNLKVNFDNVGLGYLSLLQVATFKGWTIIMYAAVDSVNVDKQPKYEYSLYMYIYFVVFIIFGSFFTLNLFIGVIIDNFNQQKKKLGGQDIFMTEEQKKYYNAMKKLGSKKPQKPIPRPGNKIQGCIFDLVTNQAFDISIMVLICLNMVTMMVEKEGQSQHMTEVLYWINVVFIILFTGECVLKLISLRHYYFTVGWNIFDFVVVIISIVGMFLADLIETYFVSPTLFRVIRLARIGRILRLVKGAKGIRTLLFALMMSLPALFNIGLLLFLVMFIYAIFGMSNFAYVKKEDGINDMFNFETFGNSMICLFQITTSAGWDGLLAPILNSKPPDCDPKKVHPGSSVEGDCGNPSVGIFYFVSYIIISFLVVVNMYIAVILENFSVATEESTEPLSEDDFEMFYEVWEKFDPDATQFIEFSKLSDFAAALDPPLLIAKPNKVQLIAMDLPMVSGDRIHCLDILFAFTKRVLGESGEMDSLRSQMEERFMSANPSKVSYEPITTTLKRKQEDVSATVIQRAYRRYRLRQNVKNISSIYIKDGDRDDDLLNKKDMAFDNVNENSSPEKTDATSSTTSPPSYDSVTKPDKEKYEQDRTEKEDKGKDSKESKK
# test-method-notes: Whole-cell voltage clamp electrophysiology, automated patch clamp (marker c in Table of Examples)
# Type: cell-based
# condition-parameters: marker c: Automated patch clamp data; read-out: Nav 1.7 activity
pIC50: −log10 of the molar value.
property-label: pIC50

>  <compound>
CCCS(=O)(=O)N1CCC(c2nc(-c3nc(N)nc(N(C)c4ccccc4)n3)no2)CC1

>  <property-label>
pIC50

>  <val>
5.83

$$$$
>  <compound>
CNC(=O)c1ccc(-c2nc(-c3nc(N)nc(N(C)c4ccccc4)n3)no2)s1

>  <property-label>
pIC50

>  <val>
5.92

$$$$
>  <compound>
CN(c1ccccc1)c1nc(N)nc(-c2noc(-c3ccc(C(=O)N4CCOCC4)s3)n2)n1

>  <property-label>
pIC50

>  <val>
6.01

$$$$
>  <compound>
CN(c1ccccc1)c1nc(N)nc(-c2noc(Cc3ccccc3)n2)n1

>  <property-label>
pIC50

>  <val>
6.44

$$$$
>  <compound>
CN(c1ccccc1)c1nc(N)nc(-c2noc(-c3c[nH]cn3)n2)n1

>  <property-label>
pIC50

>  <val>
5.09

$$$$
>  <compound>
CN(c1ccccc1)c1nc(N)nc(-c2noc(-c3ccc(OC4CCOC4)nc3)n2)n1 (centres unmarked)

>  <property-label>
pIC50

>  <val>
6.58

$$$$
>  <compound>
Cc1ccc(-c2nc(-c3nc(N)nc(N(C)c4ccccc4)n3)no2)s1 [Example 129]

>  <property-label>
pIC50

>  <val>
5.59

$$$$
>  <compound>
CCN(c1ccccc1)c1nc(N)nc(-c2noc(-c3c(F)cccc3OC)n2)n1

>  <property-label>
pIC50

>  <val>
7.17

$$$$
>  <compound>
Cc1cccc(N(C)c2nc(N)nc(-c3noc(-c4ccco4)n3)n2)c1F

>  <property-label>
pIC50

>  <val>
6.13

$$$$
>  <compound>
Cc1ccc(-c2nc(-c3nc(N)nc(N(C)c4ccccc4F)n3)no2)o1

>  <property-label>
pIC50

>  <val>
6.26

$$$$
>  <compound>
CN(c1ccccc1)c1nc(N)nc(-c2noc(N3CCCC3)n2)n1

>  <property-label>
pIC50

>  <val>
5.29

$$$$
>  <compound>
CN(c1ccccc1)c1nc(N)nc(-c2noc(-c3ncccc3N)n2)n1

>  <property-label>
pIC50

>  <val>
5.46

$$$$
>  <compound>
CN(c1ccccc1)c1nc(N)nc(-c2noc(C3CCN(S(=O)(=O)CC(F)(F)F)CC3)n2)n1

>  <property-label>
pIC50

>  <val>
5.99

$$$$
>  <compound>
CCN(c1ccccc1)c1nc(N)nc(-c2noc(-c3cccc(OC)c3)n2)n1

>  <property-label>
pIC50

>  <val>
6.09

$$$$
>  <compound>
CN(c1ccccc1)c1nc(N)nc(-c2noc(N3CCC(CSc4ccccc4)CC3)n2)n1

>  <property-label>
pIC50

>  <val>
6.65

$$$$
>  <compound>
CN(c1ccccc1)c1nc(N)nc(-c2noc(-c3ccc(F)cc3)n2)n1

>  <property-label>
pIC50

>  <val>
6.19

$$$$
>  <compound>
CN(c1ccccc1)c1nc(N)nc(-c2noc(C3C[C@H]4CC[C@@H](C3)N4CCC(F)(F)F)n2)n1 (mixture of isomers)

>  <property-label>
pIC50

>  <val>
5.94

$$$$
